The measurements presented in this section are drawn from ChEMBL document CHEMBL3853294.

Measured inhibition by item
Target: Chaperone protein DnaK (Escherichia coli) (UniProt P0A6Y8)
Assay: Inhibition of Escherichia coli DnaK ATPase activity at 200 uM incubated on shaker for 10 mins followed by 30 mins incubation by malachite green reagent based colorimetric assay
# output: bare number, implied unit %

The following compounds have reported results that may help.
COc1cc(/C=C/C(=O)NC(CC(C)C)NC(=S)NC2CCCCC2)cc(OC)c1OC (centres undefined) : 46.2
COc1cc(/C=C/C(=O)NC(NC(=S)NC2CCCCC2)C(C)(C)C)cc(OC)c1OC (centres undefined) : 35.8
Cc1ccccc1NC(=S)NC(CC(C)(C)C)NC(=O)/C=C/c1ccccc1 (centres undefined) : 41
COc1cc(/C=C/C(=O)NC(CC(C)(C)C)NC(=S)Nc2cccnc2)cc(OC)c1OC (centres undefined) : 47.1
COc1cc(/C=C/C(=O)NC(CC(C)(C)C)NC(=S)Nc2ccccc2)cc(OC)c1OC (centres undefined) : 44.1

Q: # assay system Chaperone protein DnaK (Escherichia coli) (UniProt P0A6Y8): give inhibition of COc1cc(/C=C/C(=O)NC(CC(C)C)NC(=S)Nc2ccccc2)cc(OC)c1OC (centres undefined)
Result: 50.4

Q: Answer with inhibition of `COc1ccc(-c2nc(-c3cc(C(F)(F)F)cc(C(F)(F)F)c3)n(Cc3ccc(C(N)=O)cc3)c2-c2ccc(OC)cc2)cc1` measured for Chaperone protein DnaK (Escherichia coli) (UniProt P0A6Y8).
Result: 53

Q: Output reported inhibition of the compound COc1cc(/C=C/C(=O)NC(NC(=S)Nc2ccccc2C)C(C)(C)C)cc(OC)c1OC (centres undefined) on Chaperone protein DnaK (Escherichia coli) (UniProt P0A6Y8).
Result: 50.5
